Provide the recorded kon for the entries that follow.
Biological target: T1, AAV5 (adeno-associated virus 5)
T1 construct: also called adeno-associated virus serotype 5
Experiment: SPR, AAV amine-coupled to CM5 chip;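 also: nanobodies flowed as analyte at seven concentrations spanning 1–100 nM over immobilized AAV (500–800 RU), kinetic constants derived by fitting the binding curves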

{"Binder": "A4-090 (VHH) VHH: VQLQESGGGLVQPGGSLRLSCVASGSRFIINTMGWYRQAPGKQRELVATFTRGGNTNYAESVKGRFTISRDNGKSTVYLQMNSLRPEDTAVYYCHVDEVRESTWTTSNLWGQGTQVTVSS", "Recorded Measurement": "15300 M⁻¹ s⁻¹"}

Please turn your attention to the following entry.
Task: Which kon is listed for A4-072 (VHH) VHH: VQLQESGGGLAQPGGSLRLSCAASGSSFVINTMGWYRQAPGKQREFVATVTRGGSTNYGEFVKGRFTISRDNAKNTVYLQMNSLRPEDTAVYYCHVDELRQSSWTTSNLWGQGTQVTVSS ?
Output: 100000 M⁻¹ s⁻¹
